Where do these numbers come from? They come from paper PMC3499988.

Target: HIV-1 YU-2 gp120 (HIV-1 (YU-2), UniProt P35961)
Test: SPR
Kindly supply the reported pIC50 values for the records listed here.
One number for each entry, as −log10 of the molar value.

Solved cases below.
Ask: # pIC50 lookup, item Fab m18 F99Y (HCDR3) (Fab, V domains shown) VH: VQLLESGPGVVKPSETLSLTCTVSGASVNNYYWTWVRQPPGKGLEWIGNVYDSGDTNYNPSLSSRLSLSMDTSKNQFSLRLSSVTAADTATYYCARYHRHYIRGPLSFDYWGRGTLVTVSS VL: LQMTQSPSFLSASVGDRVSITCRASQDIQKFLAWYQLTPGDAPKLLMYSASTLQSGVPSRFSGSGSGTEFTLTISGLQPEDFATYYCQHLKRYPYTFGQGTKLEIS
Reply: 7.27

Ask: # pIC50 lookup, item Fab m18 D28A (LCDR1) (Fab, V domains shown) VH: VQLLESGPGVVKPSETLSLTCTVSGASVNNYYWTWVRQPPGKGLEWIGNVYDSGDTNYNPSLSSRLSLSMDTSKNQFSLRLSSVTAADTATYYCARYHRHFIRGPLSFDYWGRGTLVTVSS VL: LQMTQSPSFLSASVGDRVSITCRASQAIQKFLAWYQLTPGDAPKLLMYSASTLQSGVPSRFSGSGSGTEFTLTISGLQPEDFATYYCQHLKRYPYTFGQGTKLEIS
Reply: 7.18

Let us examine a further case.
Ask: # pIC50 lookup, item Fab m18 Y32A (HCDR1) (Fab, V domains shown) VH: VQLLESGPGVVKPSETLSLTCTVSGASVNNAYWTWVRQPPGKGLEWIGNVYDSGDTNYNPSLSSRLSLSMDTSKNQFSLRLSSVTAADTATYYCARYHRHFIRGPLSFDYWGRGTLVTVSS VL: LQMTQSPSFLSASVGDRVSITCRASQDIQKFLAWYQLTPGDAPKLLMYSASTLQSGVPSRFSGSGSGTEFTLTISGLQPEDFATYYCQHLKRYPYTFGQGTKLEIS
Reply: 6.61
